Target: T1, human IL-2Rβ (human, UniProt P14784 27-240, limits assumed)
T1 construct: Recombinant protein, coated (ELISA) or immobilised on CM5 (SPR); also called hu IL-2R; interleukin 2 receptor β-chain
T1 sequence: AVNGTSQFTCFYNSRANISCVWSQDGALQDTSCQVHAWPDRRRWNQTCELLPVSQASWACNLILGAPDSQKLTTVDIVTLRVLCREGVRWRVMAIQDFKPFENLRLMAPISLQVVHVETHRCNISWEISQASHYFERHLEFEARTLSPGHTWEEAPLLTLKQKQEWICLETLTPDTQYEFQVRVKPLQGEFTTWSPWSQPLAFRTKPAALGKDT
Assay: SPR (Biacore), P.E. off-rate ranking
koff listing for selected binders.
# output: bare number, implied unit s⁻¹

Reference set (3 entries):
- binder: "FJ1427 P035MP06G01 (VHH, soluble VHH in periplasmic extract; also called clone nr) VHH: EVQLVESGGGLVQAGDSLRLSCVVSGRGFSTYTMGWFRQAPGKEREFVAAITWSTGRTSYADSVKGRFTISRENAENTVYLQMNSLELEDTAVYYCATDQVLWTTRPRDMRYWGQGTQVTVSF"
  endpoint result: 0.000143
- binder: "FJ1427_P035MP03H04 (VHH, soluble VHH in periplasmic extract; also called clone nr) VHH: QVQLVESGGGLVQAGGSLALSCAASGGTFSSYAMGWFRQAPGKEREFVAATTRGGGRTMYAVSTEGRFSCSRDNAKNTVYLLIKNLKPEDTAVYYCAARTSYYDGTYYPASSDFDIWGQGTQVTVSS"
  endpoint result: 0.000431
- binder: "FJ1427 P035MP03D01 (VHH, soluble VHH in periplasmic extract; also called clone nr) VHH: QVQLVESGGGLVQPGGSLGLSCAASGFTFDNYAMSWVRQAPGKGLEWVSSITGAGRGTHYADSVKGRFTISRDNAKNTLYLQMNSLKPEDTAVYYCAKYSSSTYYPPTPARGTDYRGPGTQVTVSS"
  endpoint result: 0.00127

From here, focus on the item given below.
Req: Consider the binder FJ1427 P035MP03D02 (VHH, soluble VHH in periplasmic extract; also called clone nr) VHH: QVQLQESGGGLVQTGGSLRLSCAVSGSRFISDVMGWYRQVPGKQRELVADMADGGSAKYADSVKGRFSILRDSVKNTVYLQMSSLKPEDTGIYYCKAGLWLAGRHSDYWGQGTQVTVSS . State its measured koff.
Resp: 0.000796
